Reference source: ChEMBL document CHEMBL1131885

Measured pEC50 accompanies every entry in the list below.
# Species: Rattus norvegicus
# procedure-details: In vitro growth hormone release in rat pituitary cells assay was determined
# Assay type: functional
# condition-label: Pituitary gland cell, read-out: ED50 (the source's name)
pEC50 (log units): -log10 of the concentration in mol/L.

Illustrative cases are given below, each with its answer.
Param item = `CC(C)(N)CC(=O)N[C@@H]1CCc2ccccc2N(Cc2ccc(-c3ccccc3-c3nn[nH]n3)cc2)C1=O` ; retrieve measured pEC50.
7.22

// pEC50 lookup, key: `CC(C)(N)CC(=O)N[C@H](Cc1ccccc1)C(=O)NCc1ccc(-c2ccccc2-c2nn[nH]n2)cc1`
4.96

***
Endpoint output: pEC50 of `CC(C)(N)CC(=O)N[C@H](Cc1c[nH]c2ccccc12)C(=O)NCc1ccc(-c2ccccc2-c2nn[nH]n2)cc1` . Value?
6.40
